Each recorded value in this set is attributed to patent US20210130452A1.

- tgt: T1, human IL-17A (human, UniProt Q16552 24-155, biotinylated with Sulfo-NHS-LC-Biotin in the AlphaScreen assays only)
- T1 construct: also called hIL-17A; recombinant human IL-17A
- assay-text: AlphaScreen competition, hIL-17A - IL-17RA-Fc;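 also: receptor Fc-fusion plus Acceptor and streptavidin Donor beads incubated with the mixture for 1 h at room temperature before reading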
observed-property: pIC50
Value format note: pIC50 is -log10 of concentration (mol/L); just state the number.

binder	pIC50
03B08 (VHH, Class 1 Nanobody (anti-IL-17A); not shown: c-myc, His6 tag) VHH: EVQLVESGGGLVQAGGSLRLSCAASGFTFDDYAIGWFRQAPGKEREGVSCISSSDGSIYYADSVKGRFTISSDNAKNTVYLQMNSLKPEDTAVYHCARFGRTGWAEECVDYDYWGQGTQVTVSS	10.10
13E02 (VHH, Class 4 Nanobody (cross-reactive: anti-IL-17A, IL-17F and IL-17A/F); also called IL17MS13E02; not shown: c-myc, His6 tag) VHH: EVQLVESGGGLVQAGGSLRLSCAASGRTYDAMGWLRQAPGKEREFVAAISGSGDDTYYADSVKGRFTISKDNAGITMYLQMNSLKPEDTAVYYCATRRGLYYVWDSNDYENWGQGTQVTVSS	10.17

# lookup: pIC50 of 02E03 (VHH, Class 1 Nanobody (anti-IL-17A); not shown: c-myc, His6 tag) VHH: EVQLVESGGGLVQPGGSLRLSCAASGFTFSSYAMSWARQAPGEGLEWVSDINSGGTRTTYADSVKGRFTISRDNAKNTLYLQMNSLKPEDTAVYVCAKLSVFRSQLGGKYYGGDYENRGQGTQVTVSS 9.59
